Where do these numbers come from? They come from patent US9505758B2.

target: influenza A virus (IAV) PA-Nter fragment (amino acids 1-209) (Influenza A virus, UniProt P31343); construct: PA-Nter fragment (amino acids 1-209); made in house; assay: FRET endonuclease activity assay; assay type: biochemical; details: calculated from initial reaction velocities (v0); 0.5 μM PA-Nter, 1.6 μM RNA substrate
With a cut-off of 800 nM, any IC50 strictly below it is called condition met; any IC50 meeting it or above is called condition not met.

// known answers, use as guide
- chemical.structure: "O=C(O)c1cn(Cc2ccccc2-c2ccccc2)c2cc(Br)cnc2c1=O"
  answer.label: "condition not met"
- chemical.structure: "O=C(O)c1cn(Cc2ccccc2-c2ccccc2)c2nccnc2c1=O"
  answer.label: "condition not met"
- chemical.structure: "Cc1cnc2c(=O)c(C(=O)O)cn(Cc3ccccc3-c3ccccc3)c2c1"
  answer.label: "condition met"

Quick check: does O=C(O)c1cn(Cc2ccccc2-c2ccccc2)c2cccnc2c1=O have IC50 under 800 nM? condition met

---

Reported IC50 values, influenza A virus (IAV) PA-Nter fragment (amino acids 1-209) (Influenza A virus).
One number for each entry, in nM.

Look over these answered cases.
- chemical.structure: "O=C(O)c1cn(Cc2ccccc2-c2ccc(Cl)cc2)c2cccnc2c1=O"
  assay.target: "influenza A virus (IAV) PA-Nter fragment (amino acids 1-209) (Influenza A virus)"
  reading: 430
- chemical.structure: "O=C(O)c1cn(CC2(c3ccccc3)CCCC2)c2cccnc2c1=O"
  assay.target: "influenza A virus (IAV) PA-Nter fragment (amino acids 1-209) (Influenza A virus)"
  reading: 600

Quote IC50 with test system influenza A virus (IAV) PA-Nter fragment (amino acids 1-209) (Influenza A virus) for O=C(O)c1cn(CC2(c3ccccc3)CCCC2)c2nccnc2c1=O 9700
